All values here come from patent US20030119814A1.

# Assay Method Text: physchem
# Assay Setup: soybean oil, oil or lipid
Readout Type: solubility

- Compound: "CCOC(=O)CCSN(CC1CN(c2ccc(N3CCOCC3)c(F)c2)C(=O)O1)C(C)=O (centres unmarked)"
  solubility: "> 30 mg/mL"

Assign solubility to the following record: CC(=O)N(CC1CN(c2ccc(N3CCOCC3)c(F)c2)C(=O)O1)Sc1ccccc1 (centres unmarked)
> 10 mg/mL

* * *

# Assay Method Text: Aqueous stability in buffer at 25 degrees Celsius
# Assay type: physicochemical
# Assay Setup: pH 4.0, 25 degrees Celsius, projected by Eyring Plot; 35 mM Acetate Buffer, Ionic Strength 0.15M (NaCl)
Readout Type: half-life

Please look at this compound and report its half-life: CCOC(=O)C(N)CSNC(=O)N1c2ccccc2C=Cc2ccccc21 (stereo not shown) [Example 16]
~181 days
